The measured values listed here are drawn from patent US11584747B2.

# studySystem: human DGKα (Homo sapiens (Human))
# Sequence (P23743 whole entry, looked up): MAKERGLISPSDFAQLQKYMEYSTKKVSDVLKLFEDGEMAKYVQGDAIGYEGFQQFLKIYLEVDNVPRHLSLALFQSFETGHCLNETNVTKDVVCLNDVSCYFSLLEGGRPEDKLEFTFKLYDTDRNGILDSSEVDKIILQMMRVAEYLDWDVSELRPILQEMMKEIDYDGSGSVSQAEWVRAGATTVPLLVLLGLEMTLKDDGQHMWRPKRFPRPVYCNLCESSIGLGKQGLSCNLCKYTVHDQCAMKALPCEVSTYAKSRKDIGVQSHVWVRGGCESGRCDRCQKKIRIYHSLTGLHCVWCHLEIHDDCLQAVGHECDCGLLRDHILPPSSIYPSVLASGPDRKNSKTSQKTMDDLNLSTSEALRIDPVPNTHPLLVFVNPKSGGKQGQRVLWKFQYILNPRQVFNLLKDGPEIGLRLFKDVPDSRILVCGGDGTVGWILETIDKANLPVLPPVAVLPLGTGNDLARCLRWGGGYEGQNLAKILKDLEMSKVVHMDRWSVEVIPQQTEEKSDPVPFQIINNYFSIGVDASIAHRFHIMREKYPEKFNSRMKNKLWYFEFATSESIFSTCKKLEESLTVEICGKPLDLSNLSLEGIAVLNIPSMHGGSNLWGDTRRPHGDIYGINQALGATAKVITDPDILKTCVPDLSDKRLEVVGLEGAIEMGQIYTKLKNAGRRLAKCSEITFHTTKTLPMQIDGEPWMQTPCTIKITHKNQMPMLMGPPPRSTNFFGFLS
# assaySummary: DGKα ADPGLO assay (detergent/lipid micelle substrate)
# Type: biochemical
# cond: truncated DGK alpha; read-out: DGK alpha ADPGLO (Truncated) IC50
observationType: pIC50
Give bare numbers, as −log10 of the molar value.

Example entries and their recorded answers appear below.
Return reported pIC50; argument: CCC(c1ccc(OC(F)F)cc1F)N1C[C@H](CC)N(c2nc(=O)n(C)c3ccc(C#N)nc23)C[C@H]1CC (stereo partly drawn) [Example 233] 6.77

Return reported pIC50; argument: CC[C@H]1CN(C(C)c2ccc(C(=O)OC)cc2)[C@H](CC)CN1c1nc(=O)n(C)c2ccc(C#N)nc12 (stereo partly drawn) [Example 265] 6.10

Return reported pIC50; argument: CC[C@H]1CN(C(C)c2ccc(CN3CCC(OC)CC3)cc2)[C@H](CC)CN1c1nc(=O)n(C)c2ccc(C#N)nc12 (single isomer, unassigned) [Example 273] 6.00

Return reported pIC50; argument: CC[C@H]1CN(C(C)c2ccc(CN3CCC[C@@H](O)C3)cc2)[C@H](CC)CN1c1nc(=O)n(C)c2ccc(C#N)nc12 (stereo partly drawn) [Example 289] 5.57

Provide pIC50 values for the following items, in order.
1. CC[C@H]1CN(C(C)c2cnc(C(F)(F)F)nc2)[C@H](CC)CN1c1nc(=O)n(C)c2ccc(C#N)nc12 (stereo partly drawn) [Example 226]
2. CC[C@H]1CN(C(C)c2ccc(C(F)(F)F)cc2F)[C@H](CC)CN1c1nc(=O)n(C)c2ccc(C#N)nc12 (single isomer, unassigned) [Example 25]
3. CC[C@H]1CN(C(C)c2ccc(OC(C)(C)COC)cc2)[C@H](CC)CN1c1nc(=O)n(C)c2ccc(C#N)nc12 (stereo partly drawn) [Example 189]
4. CC[C@H]1CN(C(C)c2ccc(CN3CCC[C@@H](O)C3)cc2)[C@H](CC)CN1c1nc(=O)n(C)c2ccc(C#N)nc12 (stereo partly drawn) [Example 290]

1. 5.92
2. 6.48
3. 6.07
4. 5.71

Return reported pIC50; argument: CCC(c1ccc(C(F)(F)F)nc1)N1C[C@H](CC)N(c2nc(=O)n(C)c3ccc(C#N)nc23)C[C@H]1CC (stereo partly drawn) [Example 225] 6.34

###

# studySystem: human DGKζ (Homo sapiens (Human))
# assaySummary: DGKζ LIPGLO assay (extruded liposome substrate, ADP-Glo luminescence)
# Assay type: biochemical
# cond: liposome (LIPGLO) assay; read-out: DGK zeta (liposome assay) IC50
observationType: log10 IC50 (log10 of the value in nM)
On a log10 scale: recorded IC50, unit nM.

Return reported log10 IC50; argument: CC[C@@H]1CN(c2nc(=O)n(C)c3ccc(C#N)nc23)[C@@H](C)CN1C(C)c1ccc(CNC(=O)OC)cc1 (some centres unmarked) [Example 360] 2.82

Return reported log10 IC50; argument: CCC(c1ccc(OC(C)C)cc1)N1C[C@H](C)N(c2nc(=O)n(C)c3ccc(C#N)nc23)C[C@H]1CC (some centres unmarked) [Example 333] 1.86

Return reported log10 IC50; argument: CC[C@H]1CN(C(C)c2ccc(C(F)(F)F)cc2)[C@H](CC)CN1c1nc(=O)n(C)c2ccc(COC)nc12 (single isomer, unassigned) [Example 425] 4.10

Return reported log10 IC50; argument: CCC(c1ccc(OCCC2CC2)cc1)N1C[C@H](C)N(c2nc(=O)n(C)c3ccc(C#N)nc23)C[C@H]1CC (some centres unmarked) [Example 340] 4.20

# input for lookup
Return reported log10 IC50; argument: CCC(c1ccc(OCC2(C)CC2)cc1)N1C[C@H](C)N(c2nc(=O)n(C)c3ccc(C#N)nc23)C[C@H]1CC (some centres unmarked) [Example 345] 1.98

###

# studySystem: UniProt P23743
# assaySummary: DGKα ADPGLO assay (detergent/lipid micelle substrate)
# Format: biochemical
# cond: ADPGLO assay; read-out: DGK alpha ADPGLO IC50
Parameter class (string): assigned from measured IC50. Ranges: lower band: < 60 nM; central band: ≥ 60 nM and < 2000 nM; upper band: ≥ 2000 nM

Solved cases below.
Please indicate the class for CCC(c1ccc(Br)cc1)N1C[C@H](C)N(c2nc(=O)n(C)c3ccc(C#N)nc23)C[C@H]1CC (stereo partly shown) [Example 322] based on its IC50. lower band

Please indicate the class for CCC(c1ccc(C(F)(F)F)cc1)N1C[C@H](C)N(c2nc(=O)n(C)c3ccc(C#N)nc23)C[C@H]1COC (single isomer, unassigned) [Example 399] based on its IC50. central band

Please indicate the class for CC[C@H]1CN(C(C)c2nc(C3CC3)no2)[C@H](CC)CN1c1nc(=O)n(C)c2ccc(C#N)nc12 (stereo partly shown) [Example 361] based on its IC50. lower band

---
Please indicate the class for CC[C@@H]1CN(c2nc(=O)n(C)c3ccc(C#N)nc23)[C@@H](C)CN1C(c1ccc(OC)cc1)C(C)C (stereo partly shown) [Example 314] based on its IC50. lower band

Please indicate the class for CCC(c1ccc(C(F)(F)F)cc1)N1C[C@H](CC)N(c2nc(=O)n(C)c3ccc(OC)nc23)C[C@H]1CC (stereo partly shown) [Example 435] based on its IC50. central band

Please indicate the class for CC[C@@H]1CN(c2nc(=O)n(C)c3ccc(C#N)nc23)[C@@H](C)CN1C(C)c1ccc(C(F)(F)F)c(CN(C)C)c1 (stereo partly shown) based on its IC50. upper band

###

# studySystem: human DGKα (Homo sapiens (Human))
# assaySummary: DGKα ADPGLO assay (detergent/lipid micelle substrate)
# Assay type: biochemical
# cond: ADPGLO assay; read-out: DGK alpha ADPGLO IC50
observationType: IC50 (nM)
Give bare numbers, in nM.

Example entries and their recorded answers appear below.
Return reported IC50; argument: CC[C@@H]1CN(c2nc(=O)[nH]c3ccc(C#N)nc23)[C@@H](C)CN1C(C)c1ccc(C(F)(F)F)cc1 (single isomer, unassigned) [Example 414] 1490

Return reported IC50; argument: CC[C@@H]1CN(c2nc(=O)n(C)c3ccc(C#N)nc23)[C@@H](C)CN1C(c1ccc(OC(C)C)cc1)C(C)C (stereo partly shown) [Example 323] 520

Return reported IC50; argument: CCC(c1ccc(C(F)(F)F)cc1)N1C[C@H](C)N(c2nc(=O)n(C)c3ccc(C#N)nc23)C[C@H]1COC (single isomer, unassigned) [Example 398] 90

# input for lookup
Return reported IC50; argument: CCC(c1nc(C2CC2)no1)N1C[C@H](CC)N(c2nc(=O)n(C)c3ccc(C#N)nc23)C[C@H]1CC (stereo partly shown) [Example 363] 17

###

# studySystem: human DGKζ (Homo sapiens (Human), UniProt Q13574)
# Sequence (Q13574 other isoform, or with tags, fused parts or gaps): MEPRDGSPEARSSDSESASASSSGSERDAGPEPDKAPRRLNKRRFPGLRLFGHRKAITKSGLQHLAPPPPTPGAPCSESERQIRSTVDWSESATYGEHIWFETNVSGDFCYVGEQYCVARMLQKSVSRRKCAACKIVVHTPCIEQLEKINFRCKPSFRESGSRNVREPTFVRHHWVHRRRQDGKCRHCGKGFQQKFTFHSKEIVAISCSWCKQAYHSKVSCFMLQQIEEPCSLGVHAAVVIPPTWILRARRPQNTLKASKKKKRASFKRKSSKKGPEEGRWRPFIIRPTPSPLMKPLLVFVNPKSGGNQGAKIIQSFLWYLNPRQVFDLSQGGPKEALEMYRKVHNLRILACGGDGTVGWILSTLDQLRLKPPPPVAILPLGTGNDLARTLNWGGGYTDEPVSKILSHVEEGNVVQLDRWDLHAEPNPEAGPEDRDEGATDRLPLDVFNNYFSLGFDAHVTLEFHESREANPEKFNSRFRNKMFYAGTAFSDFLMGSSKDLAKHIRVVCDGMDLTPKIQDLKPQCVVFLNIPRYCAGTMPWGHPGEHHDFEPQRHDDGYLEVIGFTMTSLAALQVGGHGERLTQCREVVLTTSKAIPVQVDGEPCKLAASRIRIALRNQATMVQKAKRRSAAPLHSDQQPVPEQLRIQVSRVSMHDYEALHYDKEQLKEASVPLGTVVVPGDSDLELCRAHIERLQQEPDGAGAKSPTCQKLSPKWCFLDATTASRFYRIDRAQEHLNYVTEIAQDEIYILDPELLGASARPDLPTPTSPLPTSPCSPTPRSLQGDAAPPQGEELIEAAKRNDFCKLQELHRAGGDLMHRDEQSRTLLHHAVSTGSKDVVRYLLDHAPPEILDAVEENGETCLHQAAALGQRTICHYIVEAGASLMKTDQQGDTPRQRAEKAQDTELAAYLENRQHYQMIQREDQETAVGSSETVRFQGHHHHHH
# assaySummary: DGKζ LIPGLO assay (extruded liposome substrate, ADP-Glo luminescence)
# Type: biochemical
# cond: liposome assay; read-out: DGK zeta LIPGLO IC50
Kindly supply the reported IC50 values for the records listed here.
Answers are plain numbers, in µM.

Example entries and their recorded answers appear below.
Field: IC50 (human DGKζ (Homo sapiens (Human), UniProt Q13574)). Entry: CC(c1ccc(C(F)(F)F)cc1F)N1C[C@H](C)N(c2nc(=O)n(C)c3ccc(C#N)nc23)C[C@H]1C (single isomer, unassigned) [Example 150] 0.2

Field: IC50 (human DGKζ (Homo sapiens (Human), UniProt Q13574)). Entry: CC[C@H]1CN(C(C)c2ccc(C(=O)OC)cc2)[C@H](CC)CN1c1nc(=O)n(C)c2ccc(C#N)nc12 (some centres unmarked) [Example 266] 0.028

Field: IC50 (human DGKζ (Homo sapiens (Human), UniProt Q13574)). Entry: CC[C@H]1CN(C(C)c2ccc(C(F)(F)F)cc2N2CCOCC2)[C@H](CC)CN1c1nc(=O)n(C)c2ccc(C#N)nc12 (some centres unmarked) [Example 195] 5.07

Field: IC50 (human DGKζ (Homo sapiens (Human), UniProt Q13574)). Entry: CC[C@@H]1CN(c2nc(=O)n(C)c3ccc(C#N)nc23)[C@@H](C)CN1C(C)c1ccc(OCC2CC2)cc1 (single isomer, unassigned) [Example 67] 0.033

# input for lookup
Field: IC50 (human DGKζ (Homo sapiens (Human), UniProt Q13574)). Entry: CC[C@H]1CN(C(c2ccc(F)cc2)c2cccc(C(F)(F)F)n2)[C@H](C)CN1c1nc(=O)n(C)c2ccc(C#N)nc12 (some centres unmarked) [Example 120] 0.74

###

Kindly supply the reported IC50 values for the records listed here.
# studySystem: human DGKζ (Homo sapiens (Human))
# assaySummary: DGKζ LIPGLO assay (extruded liposome substrate, ADP-Glo luminescence)
# Type: biochemical
# cond: liposome assay; read-out: DGK zeta LIPGLO IC50
Numbers only, in nM.

Return reported IC50; argument: CC[C@H]1CN(C(C)c2ccc(C(F)(F)F)cc2F)[C@H](CC)CN1c1nc(=O)n(C)c2ccc(C#N)nc12 (single isomer, unassigned) [Example 25] 1340

Return reported IC50; argument: CCC(c1ccc(OCC2CC2)cc1F)N1C[C@H](CC)N(c2nc(=O)n(C)c3ccc(C#N)nc23)C[C@H]1CC (stereo partly drawn) [Example 198] 38

Provide IC50 values for the following items, in order.
1. CCC(c1ccc(OC2CC2)cc1)N1C[C@H](CC)N(c2nc(=O)n(C)c3ccc(C#N)nc23)C[C@H]1CC (stereo partly drawn) [Example 256]
2. CC[C@H]1CN(C(C)c2ccc(CN3CC4(COC4)C3)cc2)[C@H](CC)CN1c1nc(=O)n(C)c2ccc(C#N)nc12 (stereo partly drawn) [Example 279]
3. C[C@@H]1CN(c2nc(=O)n(C)c3ccc(C#N)nc23)[C@@H](C)CN1C(c1ccc(OC(F)(F)F)cc1)c1cc(C2CC2)on1 (single isomer, unassigned) [Example 164]

[2940, 62400, 340]

Return reported IC50; argument: CC(c1ccc(C2CC2)cc1F)N1C[C@H](C)N(c2nc(=O)n(C)c3ccc(C#N)nc23)C[C@H]1C (single isomer, unassigned) [Example 169] 2180
